# study.target: C460W/E583M rat olfactory CNG channel (Rattus norvegicus, UniProt Q00195, C460W/E583M)
# test.method.notes: Excised inside-out patch recording, C460W/E583M CNG channel
# Assay type: biochemical
# run.parameters: read-out: K1/2 (concentration that gives half-maximal current), +50 mV, mean ± SD of three experiments
quantity.name: EC50 (µM)
Express it in µM; write the number only.

Look up EC50: Nc1nc2c(ncn2[C@@H]2O[C@@H]3COP(=O)(O)O[C@H]3[C@H]2O)c(=O)[nH]1
12

* * *

# study.target: Δ61–90/C460W/E583M rat olfactory CNG channel (Rattus norvegicus, UniProt Q00195, C460W/DEL61-90/E583M)
# Sequence (Q00195 with tags, fused parts or gaps DEL61-90/C460W/E583M): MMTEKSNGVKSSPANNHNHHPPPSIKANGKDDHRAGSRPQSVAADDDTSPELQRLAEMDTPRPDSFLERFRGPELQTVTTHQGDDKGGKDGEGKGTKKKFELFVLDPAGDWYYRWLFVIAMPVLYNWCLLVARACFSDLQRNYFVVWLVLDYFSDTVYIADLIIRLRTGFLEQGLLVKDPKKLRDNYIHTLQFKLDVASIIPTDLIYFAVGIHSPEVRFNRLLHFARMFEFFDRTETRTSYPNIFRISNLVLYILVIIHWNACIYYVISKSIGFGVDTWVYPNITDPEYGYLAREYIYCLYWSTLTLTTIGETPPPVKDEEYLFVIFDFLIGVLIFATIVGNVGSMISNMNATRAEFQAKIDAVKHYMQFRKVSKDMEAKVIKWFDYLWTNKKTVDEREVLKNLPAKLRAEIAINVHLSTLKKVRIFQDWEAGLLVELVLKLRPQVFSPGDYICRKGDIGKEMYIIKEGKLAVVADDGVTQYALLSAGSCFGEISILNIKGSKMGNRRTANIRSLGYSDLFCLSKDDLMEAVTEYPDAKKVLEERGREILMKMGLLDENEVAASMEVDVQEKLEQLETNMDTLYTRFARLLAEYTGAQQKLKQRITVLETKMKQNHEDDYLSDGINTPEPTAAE
# test.method.notes: Excised inside-out patch recording, Δ61–90/C460W/E583M CNG channel
# Assay type: biochemical
# run.parameters: read-out: K1/2 (concentration that gives half-maximal current); Δ61-90/C460W/E583M channel, −50 mV, mean ± SD of three experiments
quantity.name: pEC50
Please keep in mind that pEC50 is minus log10 of the molar concentration; only the number is needed.

Look up pEC50: Nc1nc2c(ncn2[C@@H]2O[C@@H]3COP(=O)(O)O[C@H]3[C@H]2O)c(=O)[nH]1
4.80
